# Kd per record follows
TESTED SYSTEM: T1, whirlin-PDZ3 (aa residues 821-915) (mouse, UniProt Q80VW5-1 821-915)
T1 construct: extra 7 aa at the N-terminus of all recombinant proteins of the study; whirlin, residues 821-915: PDZ3 domain, common to L- and S-whirlin; also called whirlin PDZ3 domain
T1 sequence: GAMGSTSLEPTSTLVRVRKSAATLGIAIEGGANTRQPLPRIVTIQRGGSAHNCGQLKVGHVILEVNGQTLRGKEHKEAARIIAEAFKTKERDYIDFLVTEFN
TEST PROTOCOL: SPR; ProteOn XPR 36; N-terminally biotinylated peptides captured on a Neutravidin NLC sensor chip, whirlin fragments flowed as analytes at 20 μL/min for 2 min; 250 mM NaCl, 50 mM Tris pH 7.5, 0.5 mM TCEP; steady-state fit Req = (Rmax*C)/(Kd+C); mean of three experiments; Figure 4B shows the responses at 10 μM
TEST PARAMETERS: both partners purified
No end group written: not given here. *: point of attachment. Biotin = O=C1N[C@H]2[C@H](CS[C@H]2CCCCC(=O)*)N1; TTDS = trioxatridecan-succinamic acid spacer
Give just the numeric value; µM need not be written.

[
  {
    "BINDER": "{Biotin-TTDS}-VIMESPLEITEL (C-terminal residues of cadherin-23, including the PBM; source: synthetic peptide (Eurogentec); not shown: biotin, N-terminal, kept) [CDH23 C-terminal peptide (biotin-TTDS-VIMESPLEITEL)]",
    "Kd / µM": 4.3
  }
]

// switching to the query binder
Request: Record request: Kd value, item {Biotin-TTDS}-MGPWNSLHIPMTKL (C-terminal 14 aa of protocadherin-15 isoform CD3, including the PBM; source: synthetic peptide (Eurogentec); not shown: biotin, N-terminal, kept) [PCDH15-CD3 C-terminal peptide (biotin-TTDS-MGPWNSLHIPMTKL)]
Response: 230
